# Tested system: QR1 (NQO1) (Homo sapiens, UniProt P15559)
# Construct: purchased Sigma-Aldrich
# Sequence (P15559 whole entry): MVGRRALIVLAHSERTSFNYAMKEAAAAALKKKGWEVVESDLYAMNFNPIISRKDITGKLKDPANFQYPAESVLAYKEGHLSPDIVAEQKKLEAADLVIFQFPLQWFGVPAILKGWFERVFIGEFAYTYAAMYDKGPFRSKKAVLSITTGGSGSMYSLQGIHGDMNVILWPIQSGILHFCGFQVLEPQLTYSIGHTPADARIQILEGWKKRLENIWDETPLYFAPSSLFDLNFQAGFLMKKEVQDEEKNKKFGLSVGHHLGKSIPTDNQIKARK
# Protocol details: Selectivity assay with QR1 in place of QR2, fluorescence readout
# Assay type: biochemical
Value kind: IC50

INSERT INTO assay_data (compound, value_kind, data_value) VALUES
  ('Cc1cc(-c2ccc(C)c(S(=O)(=O)NCC3CCN(Cc4ccco4)CC3)c2)on1 [PCM-0136246]', 'IC50', '> 9.9 µM'),
  ('Cc1nc(-c2ccc(C)c(S(=O)(=O)NCCCN3CCCC3=O)c2)cs1 [PCM-0213793]', 'IC50', '> 9.99 µM'),
  ('Cc1ccc(-c2cn3cccc(C)c3n2)cc1S(=O)(=O)N1CCCCCC1 [PCM-0214338]', 'IC50', '> 9.99 µM'),
  ('Cc1ccc2nc(-c3cccc(S(=O)(=O)N4CCOCC4)c3)cn2c1 [PCM-0124615]', 'IC50', '> 9.9 µM'),
  ('Cc1ccn2cc(-c3cccc(S(=O)(=O)N4CCCCCC4)c3)nc2c1 [PCM-0213798]', 'IC50', '> 9.99 µM'),
  ('CS(=O)(=O)N(Cc1cccnc1)C1CN(C(=O)c2c[nH]c3ccccc23)C1 [PCM-0105406]', 'IC50', '> 9.9 µM'),
  ('CS(=O)(=O)N(C1CC1)C1CCOC2(CCN(C(=O)C3(c4ccccc4)CC3)CC2)C1 (stereo not drawn) [PCM-0207818]', 'IC50', '> 9.9 µM'),
  ('Cc1ccc(-c2nnc(-c3ccccc3)o2)cc1S(=O)(=O)N1CCCC1 [PCM-0213805]', 'IC50', '> 9.99 µM'),
  ('O=c1n(Cc2ccc(Cl)cc2)nc2ccc(S(=O)(=O)N3CCCCC3)cn12 [PCM-0140113]', 'IC50', '> 9.9 µM');
